Molecular target: human M1 receptor (hCHRM1) (Homo sapiens)
Construct: expressed in transfected cells
Sequence (P11229 whole entry): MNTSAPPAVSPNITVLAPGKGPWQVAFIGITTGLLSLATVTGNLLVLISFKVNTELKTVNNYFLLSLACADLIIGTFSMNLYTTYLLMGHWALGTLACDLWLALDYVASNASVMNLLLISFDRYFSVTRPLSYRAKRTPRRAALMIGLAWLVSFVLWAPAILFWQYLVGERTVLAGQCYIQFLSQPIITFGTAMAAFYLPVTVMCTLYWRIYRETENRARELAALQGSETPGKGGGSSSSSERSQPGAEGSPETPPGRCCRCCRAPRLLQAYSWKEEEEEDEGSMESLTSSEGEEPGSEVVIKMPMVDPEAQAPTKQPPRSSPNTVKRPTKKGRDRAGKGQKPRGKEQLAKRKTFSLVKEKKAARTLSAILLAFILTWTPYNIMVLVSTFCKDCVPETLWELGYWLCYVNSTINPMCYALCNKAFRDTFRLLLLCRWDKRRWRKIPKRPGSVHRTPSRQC
Experiment: Measurement of M1 receptor positive allosteric modulator (M1PAM) activity, calcium fluorescence in CHO-K1 cells
Type: cell-based
Conditions: 10 μM test compound with acetylcholine at EC20; 100% = acetylcholine 1 μM, 0% = DMSO
Experimental: Measurement of M1 Receptor Positive Allosteric Modulator (M1PAM) Activity The activity of a test compound in the presence of acetylcholine at EC20 concentration (final concentration 0.6-0.8 nM), which affords an action corresponding to about 20% of the maximum activity, was measured as PAM activity. The method is as follows. […]
Measured attribute: activity (%) at 10 μM

# Molecule, Unit string, activity (%) at 10 μM
data = [
    ("Cc1nn(C)cc1-c1ccc(CN2Cc3ncnc(OCC(F)(F)F)c3C2=O)cc1 [Example 39]", "%", 93),
    ("Cc1nn(C)cc1-c1ccc(CN2Cc3ncnc(OCC(F)(F)F)c3C2=O)c(F)c1 [Example 36]", "%", 99),
    ("CCC(F)(F)COc1ncnc2c1C(=O)N(Cc1ccc(C(=O)NC)cc1)C2 [Example 10]", "%", 103),
    ("CCn1cc(-c2ccc(CN3Cc4ncnc(OCC(F)(F)CC)c4C3=O)cc2)cn1 [Example 68]", "%", 97),
    ("Cc1nn(C)cc1-c1ccc(CN2Cc3ccnc(OCC(F)(F)C(F)F)c3C2=O)cc1 [Example 18]", "%", 102),
    ("Cn1cc2cc(-c3ccc(CN4Cc5ccnc(OCC(C)(F)F)c5C4=O)cc3)ccc2n1 [Example 14]", "%", 88),
    ("CCn1cc(-c2ccc(CN3Cc4ncnc(OCC(C)(C)F)c4C3=O)cc2)cn1 [Example 45]", "%", 87),
    ("Cn1cc(-c2ccc(CN3Cc4ccnc(OCC(C)(C)F)c4C3=O)c(F)c2)cn1 [Example 81]", "%", 88),
]

Ref: patent US10208046B2
